- measurement_target: Serine/threonine-protein kinase Sgk1 (Homo sapiens, UniProt O00141)
- Sequence (O00141 whole entry): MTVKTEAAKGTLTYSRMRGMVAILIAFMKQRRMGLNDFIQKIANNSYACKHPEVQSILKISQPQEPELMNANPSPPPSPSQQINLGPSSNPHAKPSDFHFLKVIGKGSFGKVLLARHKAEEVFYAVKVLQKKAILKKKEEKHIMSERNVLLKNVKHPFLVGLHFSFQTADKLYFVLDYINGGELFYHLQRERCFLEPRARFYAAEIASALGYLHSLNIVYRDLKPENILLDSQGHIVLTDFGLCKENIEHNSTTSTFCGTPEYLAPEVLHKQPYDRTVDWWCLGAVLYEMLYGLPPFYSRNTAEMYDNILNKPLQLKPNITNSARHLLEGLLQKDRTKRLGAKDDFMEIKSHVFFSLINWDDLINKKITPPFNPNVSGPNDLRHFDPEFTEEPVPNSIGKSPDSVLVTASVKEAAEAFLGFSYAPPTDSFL
I'd be grateful if you could share measured IC50 for these entries.
Answers are plain numbers, in nM.

Use these answered entries as a reference point.
>  <compound>
Cc1nc(O[C@H]2CC[C@@H](NC3CCC3)CC2)c(C(=O)N[C@@H]2CCCN(c3nn(-c4ccc(C(N)=O)c(F)c4)c4ncnc(N)c34)C2)s1

>  <measurement_target>
Serine/threonine-protein kinase Sgk1 (Homo sapiens, UniProt O00141)

>  <experimental_result>
4

$$$$
>  <compound>
Cc1nc(O[C@H]2CC[C@@H](NC(C)CO)CC2)c(C(=O)N[C@@H]2CCCN(c3nn(-c4ccc(C(N)=O)c(F)c4)c4ncnc(N)c34)C2)s1 (some centres undefined)

>  <measurement_target>
Serine/threonine-protein kinase Sgk1 (Homo sapiens, UniProt O00141)

>  <experimental_result>
5

$$$$
>  <compound>
Cc1nc(O[C@H]2CC[C@@H](N(C)C)CC2)c(C(=O)N[C@@H]2CCCN(c3nn(-c4ccc(C(N)=O)c(F)c4)c4ncnc(N)c34)C2)s1

>  <measurement_target>
Serine/threonine-protein kinase Sgk1 (Homo sapiens, UniProt O00141)

>  <experimental_result>
4

$$$$

Return IC50 (reported value) for this compound: `CCC(CC)N[C@H]1CC[C@@H](Oc2nc(C)sc2C(=O)N[C@@H]2CCCN(c3nn(-c4ccc(C(N)=O)c(F)c4)c4ncnc(N)c34)C2)CC1`
3
